tested on: SK-MEL-2 melanoma; test: NCI-60 one-dose screen, 48 h (100 = growth as untreated, 0 = no growth, -100 = all killed); conditions: 10 µM unless noted
Compounds without any hit were thinned out: in the full panel of roughly 83,000, 20% have a hit. Activity calls are given as the source filed them. How the source made its calls: active means growth percent below 10; inactive means the rest.
Answer each item with its documented growth.

# Structure smiles string, growth
data = [
    ("CC1=CC(C)(C)Nc2ccc(Cc3ccc4c(c3)C(C)=CC(C)(C)N4)cc21", "90.6% (inactive)"),
]

Please give growth, item by item, for the list that follows.
1. COc1ccc(-c2cc(-c3ccc(Nc4ccnc5cc(Cl)ccc45)cc3)nc(N3CCOCC3)n2)cc1
2. CC(C)(C)c1cc(/C=N\NC(=O)/C=C/C=C/c2ccc3c(c2)OCO3)c(O)c(C(C)(C)C)c1
3. O=C(/C=C/c1cccc([N+](=O)[O-])c1)c1ccc(O)c(CN2CCN(c3cc4c(cc3F)c(=O)c(C(=O)O)cn4C3CC3)CC2)c1
4. C#CC(F)(F)[C@]1(O)CC[C@H]2[C@@H]3CCC4=CC(=O)CCC4=C3[C@@H](c3ccc(C4CC4)cc3)C[C@@]21C

Return:
90.3% (inactive)
89% (inactive)
88.3% (inactive)
59.5% (inactive)

====

tested on: SF-268 CNS; test: NCI-60 one-dose screen, 48 h; conditions: 10 µM unless noted
The panel holds about 83,000 compounds, 20% with a hit somewhere; the sample as a whole holds those more often. Calls of active or inactive are those of the source. Rule for the calls: active = growth percent below 10; inactive = the rest.
Hello, when you answer, please use one of the following outcomes: class 1 (active), class 0 (inactive)

# Molecule, Label
rows = [
    ("CCCn1c(=O)[nH]c(N)c([C@H]2c3ccccc3Oc3[nH]c(=O)n(CCC)c(=O)c32)c1=O", "class 0"),
    ("Cc1cc(C)c2nc3nc(C)cc(C)c3c(N)c2c1", "class 0"),
    ("CCc1c(Nc2ccccc2C)nc(N)[nH]c1=O", "class 0"),
    ("COc1ccccc1NS(=O)(=O)c1ccc2oc(SC(C)C)nc2c1", "class 0"),
]

Enquiry: Please indicate how the test categorized "O=C(CN1C(=O)/C(=C/c2ccc(Cl)cc2)SC1=S)NCCCN1CCOCC1" .
Return: class 0

Enquiry: // return assay outcome for "CCOC(=O)c1sc2nc(-c3cccc(OC)c3)nc(N3CCOCC3)c2c1C"
Return: class 0

Enquiry: Per the assay record, what outcome was assigned to "CSc1nc2c(c(=O)[nH]1)C1(C(=O)Nc3ccccc31)c1c(nc(SC)[nH]c1=O)N2" ?
Return: class 0

Enquiry: Hi, sorry to bother you, what did the test record for "COc1ccc(S(=O)(=O)N2CCCCC2)cc1NC(=O)c1[nH]c(C)c2c1CCCCC2=O" ?
Return: class 0

Enquiry: Fill in: this test's call for Cc1ccc(C(SCC(N)C(=O)O)(c2ccccc2)c2ccc(C)cc2)cc1 (stereo not drawn) is ___
Return: class 0

====

test system: CAKI-1 renal; test: NCI-60 one-dose screen, 48 h; conditions: 10 µM unless noted
This is part of a sample that, as a whole, favours compounds with a hit. Of some 83,000 tested, about 20% had one in any assay. The source made the active and inactive calls. Rule for the calls: active = growth percent below 10; inactive = the rest.
# valid calls are active, inactive; nothing else

# Molecule, Label
rows = [
    ("COc1ccc(-c2cc(NC(=O)Nc3ccc4ncsc4c3)no2)cc1", "inactive"),
    ("COc1ccc2[nH]cc(-c3noc(C(=O)c4cn(C)c5ccc(F)cc45)n3)c2c1", "inactive"),
    ("COc1ccc(Nc2c3c4c(cccc4[nH]c2=O)C(=O)c2ccccc2-3)cc1", "inactive"),
    ("C=C(C)[C@@H]1CC[C@]2(C(N)=O)CC[C@]3(C)[C@H](CC[C@@H]4[C@@]5(C)C/C(=C/c6ccco6)C(=O)C(C)(C)[C@@H]5CC[C@]43C)[C@@H]12", "inactive"),
    ("COc1cccc(-c2nc3sccn3c2-c2ccnc(NCCNS(=O)(=O)c3ccccc3)c2)c1", "active"),
]

Enquiry: Can you look up the reported call for "O=C(C(=O)c1ccc2c(c1)OCO2)c1ccc2c(c1)OCO2" for me?
Return: inactive

Enquiry: # outcome recorded in this test, key = "O=CNc1ccc2c(c1)Cc1cccc(NC=O)c1-2"
Return: inactive

Enquiry: Hi, do you know how "O=C(NCCN1CCOCC1)Nc1ccc(-c2cc3c(Nc4ccc(Oc5cccc(C(F)(F)F)c5)c(Cl)c4)ncnc3s2)cc1" came out in this test?
Return: active

====

test system: SK-OV-3 ovarian; experiment: NCI-60 one-dose screen, 48 h (100 = growth as untreated, 0 = no growth, -100 = all killed); settings: 10 µM unless noted
Compounds without any hit were thinned out: in the full panel of roughly 83,000, 20% have a hit.
Readout kind: growth (%)
Answers are plain numbers, in %.

# Structure smiles string, growth [%]
rows = [
    ("CN(C)c1ccc(N=Nc2ccccn2)c(O)c1", 19.5),
    ("CCOC(=O)c1c(CN2CCN(C)CC2)nc2ccc(Cl)cc2c1-c1ccccc1", 90.7),
]

Enquiry: Given the entry "O=C1NC(=S)N[C@H]1CC(=O)n1cnc2ccccc21" , report its measured growth.
Return: 111

====

Please go through the items and note down their growth.
system: HCT-116 colon; assay: NCI-60 one-dose screen, 48 h (100 = growth as untreated, 0 = no growth, -100 = all killed); conditions: 10 µM unless noted
The panel holds about 83,000 compounds, 20% with a hit somewhere; the sample as a whole holds those more often. The source made the active and inactive calls. The calls were made as follows: active = growth percent below 10; inactive = the rest.

Sample records with growth:
# Structure smiles string, Target system, growth
rows = [
    ("O=C1CC(=NCC(=O)n2c(-c3ccccc3)nc3ccccc32)NN1", "HCT-116 colon", "94.6% (inactive)"),
    ("CCCOc1cc2ccccc2cc1C(=O)Nc1nc(N)c2c(ccc3nccc32)[nH]1", "HCT-116 colon", "-58.9% (active)"),
    ("Cc1cc2nc(NC(=O)CN3CCN(CCN4C(=O)c5cccc6cccc(c56)C4=O)CC3)sc2cc1C", "HCT-116 colon", "74.7% (inactive)"),
]

For each of the compounds below, note its growth.
1. O=C(COc1ccc(-c2nc3cc(Cl)c(Cl)cc3[nH]2)cc1)N=Nc1c(O)[nH]c2ccccc12
2. Cc1cc(NS(=O)(=O)c2ccc(-c3cnc(C4CC4)o3)cc2)ccc1Cl

Return:
["16.2% (inactive)", "13.3% (inactive)"]

====

tested on: HOP-62 NSCLC; experiment: NCI-60 one-dose screen, 48 h (100 = growth as untreated, 0 = no growth, -100 = all killed); conditions: 10 µM unless noted
About 83,000 compounds went through this panel and 20% of them were active in at least one assay; those are over-represented in the sample as a whole.
Exercise: for every item that follows, state its recorded growth.
Numbers only, in %.

Worked examples follow.
# Compound, Uom, growth
measured = [
    ("COc1ccc(S(=O)(=O)N2CCCCC2)cc1NC(=O)c1[nH]c(C)c2c1CCCCC2=O", "%", 26),
    ("N#CN1CCC[C@H]1C(=O)N1CCc2c(-c3[nH]nc4ncccc34)cccc21", "%", -10.1),
    ("CC(C)(CCCN=C(N)Nc1ccc(Cl)cc1)c1ccc(F)cc1", "%", 69.2),
    ("COc1ccc(-n2nc(C)c3c(Nc4ccc(NC(=O)Nc5ccc(Cl)c(C(F)(F)F)c5)cc4)ncnc32)cc1", "%", -15.3),
    ("COc1ccc(CCNc2nc(SC)nc(-c3cccc([N+](=O)[O-])c3)c2C#N)cc1OC", "%", 67.6),
    ("O=C1CC(=NCC(=O)n2c(-c3ccccc3)nc3ccccc32)NN1", "%", 89),
    ("CCc1c(Nc2ccccc2C)nc(N)[nH]c1=O", "%", 100),
    ("O=C1C=C(O)C(=O)C(CC2=C(O)C(=O)C=C(O)C2=O)=C1O", "%", 104),
]

List growth for every entry below, keeping the order given.
1. O=C(CN(C(=O)Cn1c(=O)n2nnnc2c2ccccc21)c1ccccc1C(F)(F)F)Nc1ccc(C(F)(F)F)cc1
2. NCCNc1nc(Nc2ccc(-c3nc4ccccc4[nH]3)cc2)c2cn[nH]c2n1
3. CCOc1nc(-c2ccccc2)cc2c(O)c(C(=O)O)[nH]c(=O)c12

Return:
1: 107; 2: 97.5; 3: 98.2

Hey, can you go through the list below and give me growth for every item?
1. COc1cccc(/C=N/NC(=O)c2ccccc2Nc2ccnc(C(F)(F)F)c2)c1O
2. Cc1cc(N2CCSCC2)nc(NC2CCCC(Nc3ccnc4cc(Cl)ccc34)C2)n1 (stereo not drawn)
3. CN1CCN(CCCOc2cccc3nc(Nc4cc(Cl)cc(Cl)c4)ccc23)CC1
4. O=C1/C(=C/c2ccccc2)SC(=S)N1CCc1ccc(O)cc1
5. CN1CCN(c2ccc(Nc3c4ccccc4nc4ccccc34)cc2)CC1
6. Cn1cc(-c2nonc2-c2c[nH]c3ccccc23)c2cccnc21
7. CN(C)CCN1C(=O)c2cccc3c(N)ccc(c23)C1=O

Return:
1. -6.28
2. -46.2
3. 19.8
4. 94
5. 110
6. 36.5
7. 58.1

Please report growth for every entry that follows.
1. O=c1ccccc(-c2ccc(Br)cc2)c1O
2. FC(F)(F)c1[nH]ncc1-c1nc2ccc3n[nH]c(C#Cc4cccnc4)c3c2c2c1CCCC2
3. O=S(=O)(Nc1ccc(NS(=O)(=O)c2ccccc2)c(Cl)c1)c1ccccc1
4. N#Cc1c(N)n(CCNC(=O)c2ccccc2)c2nc3ccccc3nc12
5. O=C1/C(=C/N2N=C(c3ccc4ccccc4c3)CC2c2ccccc2O)SC(=S)N1c1cccnc1 (stereo not drawn)
6. COc1ccccc1NS(=O)(=O)c1ccc2oc(SC(C)C)nc2c1
7. CC[C@H]1OC(=O)[C@H](C)[C@@H](O[C@H]2C[C@@](C)(OC)[C@@H](O)[C@H](C)O2)[C@H](C)[C@@H](O[C@@H]2O[C@H](C)C[C@H](N(C)C)[C@H]2O)[C@](C)(O)C[C@H](C)CN(C)[C@H](C)[C@@H](O)[C@]1(C)O
8. COc1ccc(C2C(C#N)=C(N)Oc3n[nH]c(-c4cccs4)c32)cc1I (stereo not drawn)

Return:
[10.6, 36, 110, 111, 25.2, 97.3, 97.7, 81.7]

Please go through the list and note growth for each compound.
1. COc1ccc(SC2c3cc(OC)c(OC)cc3Oc3nc(N)c(C#N)c(N)c32)cc1 (stereo not drawn)
2. COc1cc(/C=C/C(=O)Nc2cccnc2Nc2ccc(F)cc2)cc(OC)c1OC

Return:
-42.1
103
